# assayName: Water solubility
# Type: physicochemical
quantity: solubility (mg/mL)

INSERT INTO assay_data (smilesinput, qualifyingsign, resultvalue) VALUES
  ('CCc1c2c(nc3ccc(C)cc13)-c1cc([C@@](O)(CC)C(=O)NCCN(C)C)c(COC(=O)CCSC)c(=O)n1C2', '=', 21),
  ('CCCC(=O)OCc1c([C@@](O)(CC)C(=O)NCCN(C)C)cc2n(c1=O)Cc1c-2nc2cc(F)c(F)cc2c1CC', '>', 60),
  ('CCCC(=O)OCc1c([C@@](O)(CC)C(=O)NCCN(C)C)cc2n(c1=O)Cc1c-2nc2ccc(Cl)cc2c1CC', '=', 41),
  ('CCC(=O)OCc1c([C@@](O)(CC)C(=O)NCCN(C)C)cc2n(c1=O)Cc1c-2nc2cc(F)c(C)cc2c1CC', '=', 20),
  ('CC[C@@](O)(C(=O)NCCN(C)C)c1cc2n(c(=O)c1COC(=O)CCSC)Cc1c-2nc2cc(Br)ccc2c1C', '>', 67),
  ('CCCC(=O)OCc1c([C@@](O)(CC)C(=O)NCCN(C)C)cc2n(c1=O)Cc1c-2nc2cc(Cl)c(Cl)cc2c1CC', '=', 35),
  ('CCC(=O)OCc1c([C@@](O)(CC)C(=O)NCCN(C)C)cc2n(c1=O)Cc1c-2nc2cc(F)c(F)cc2c1CC', '>', 59);
